Measured MIC by item
System: isogenic A. baylyi ADP1 panel encoding wildtype or mutant PBP3
assay_summary: Broth microdilution MIC, isogenic A. baylyi panel (PBP3 variants with or without overexpressed β-lactamases)
Format: cell-based
run_parameters: Acinetobacter baylyi, A. baylyi; PBP3 Wildtype; overexpressed OXA-66; read-out: MIC
Express it in µg/mL; write the number only.

Some solved entries appear below for comparison.
molecule	reported_value
C[C@@H](O)[C@H]1C(=O)N2C(C(=O)O)=C(SCCN=CN)C[C@H]12	0.13
CC1(C)[C@H](C(=O)O)N2C(=O)C[C@H]2S1(=O)=O	8
C[C@H]1[C@H](NC(=O)/C(=N\OC(C)(C)C(=O)O)c2csc(N)n2)C(=O)N1S(=O)(=O)O	32

Next up:
Form field MIC, entry C[C@@H](O)[C@H]1C(=O)N2C(C(=O)O)=C(S[C@@H]3CN[C@H](C(=O)N(C)C)C3)[C@H](C)[C@H]12 : 1

* * *

Test system: A. baumannii clinical isolates
assay_summary: microbe, parasite or virus in culture
Assay type: cell-based
run_parameters: Acinetobacter baumannii, isolate ARC6808 (IHMA 1557168), Spain, RTI, 2017, read-out: MIC
endpoint_label: MIC (µg/mL)
Give the value in µg/mL but do not write µg/mL after it.

Reported MIC of CN(C)c1cc(NC(=O)CNC(C)(C)C)c(O)c2c1C[C@H]1C[C@H]3[C@H](N(C)C)C(O)=C(C(N)=O)C(=O)[C@@]3(O)C(O)=C1C2=O : 1

// recorded MIC for C[C@@H](O)[C@H]1C(=O)N2C(C(=O)O)=C(SCCN=CN)C[C@H]12 : 64

Short answer for CC1(C)[C@H](C(=O)O)N2C(=O)C[C@H]2S1(=O)=O : MIC was 16

MIC measured on C[C@@H](O)[C@H]1C(=O)N2C(C(=O)O)=C(S[C@@H]3CN[C@H](C(=O)N(C)C)C3)[C@H](C)[C@H]12 = 64

* * *

Recorded MIC by entry
Tested on: A. baumannii clinical isolates
assay_summary: microbe, parasite or virus in culture
Assay type: cell-based
run_parameters: Acinetobacter baumannii, isolate ARC6644 (IHMA 1420327), Mexico, UTI, 2016, read-out: MIC
Respond with the bare value in µg/mL.

Lab note: CC1(C)[C@H](C(=O)O)N2C(=O)C[C@H]2S1(=O)=O gave MIC of 64

The recorded MIC for entry C[C@@H](O)[C@H]1C(=O)N2C(C(=O)O)=C(S[C@@H]3CN[C@H](C(=O)N(C)C)C3)[C@H](C)[C@H]12 equals 64

Just so you know, measured MIC for C[C@@H](O)[C@H]1C(=O)N2C(C(=O)O)=C(SCCN=CN)C[C@H]12 came out at 16

The compound identified as CN(C)c1cc(NC(=O)CNC(C)(C)C)c(O)c2c1C[C@H]1C[C@H]3[C@H](N(C)C)C(O)=C(C(N)=O)C(=O)[C@@]3(O)C(O)=C1C2=O registered its MIC at 1

* * *

Test system: A. baumannii clinical isolates
assay_summary: microbe, parasite or virus in culture
Type: cell-based
run_parameters: Acinetobacter baumannii, isolate ARC6823 (IHMA 1620872), Greece, SSSI, 2017, read-out: MIC
endpoint_label: MIC (µg/mL)
Entry rule: numbers only, all in µg/mL.

So, CC1(C)[C@H](C(=O)O)N2C(=O)C[C@H]2S1(=O)=O [sulbactam] ? Its MIC was 32

The measured MIC associated with CN(C)c1cc(NC(=O)CNC(C)(C)C)c(O)c2c1C[C@H]1C[C@H]3[C@H](N(C)C)C(O)=C(C(N)=O)C(=O)[C@@]3(O)C(O)=C1C2=O [TIG, tigecycline] reads 1

Summary for this molecule, C[C@@H](O)[C@H]1C(=O)N2C(C(=O)O)=C(SCCN=CN)C[C@H]12 [imipenem] : MIC is 64

* * *

Tested on: A. baumannii clinical isolates
assay_summary: microbe, parasite or virus in culture
Format: cell-based
run_parameters: Acinetobacter baumannii, isolate ARC7015 (IHMA 2045327), Guatemala, UTI, 2019, read-out: MIC
endpoint_label: MIC

Record excerpt, results attached:
compound	tested_target	reported_value
CC1(C)[C@H](C(=O)O)N2C(=O)C[C@H]2S1(=O)=O [sulbactam]	A. baumannii clinical isolates	> 64 µg/mL
C[C@@H](O)[C@H]1C(=O)N2C(C(=O)O)=C(S[C@@H]3CN[C@H](C(=O)N(C)C)C3)[C@H](C)[C@H]12 [meropenem]	A. baumannii clinical isolates	> 64 µg/mL
C[C@@H](O)[C@H]1C(=O)N2C(C(=O)O)=C(SCCN=CN)C[C@H]12 [imipenem]	A. baumannii clinical isolates	64 µg/mL

Lab note: measured MIC of CN(C)c1cc(NC(=O)CNC(C)(C)C)c(O)c2c1C[C@H]1C[C@H]3[C@H](N(C)C)C(O)=C(C(N)=O)C(=O)[C@@]3(O)C(O)=C1C2=O [TIG, tigecycline] was 0.5 µg/mL

* * *

Reported MIC values for the following compounds.
Test system: isogenic A. baylyi ADP1 panel encoding wildtype or mutant PBP3
assay_summary: Broth microdilution MIC, isogenic A. baylyi panel (PBP3 variants with or without overexpressed β-lactamases)
Type: cell-based
run_parameters: Acinetobacter baylyi, A. baylyi; PBP3 H370Y; β-lactamase None (empty vector)

molecule	tested_target	reported_value
C[C@@H](O)[C@H]1C(=O)N2C(C(=O)O)=C(SCCN=CN)C[C@H]12	isogenic A. baylyi ADP1 panel encoding wildtype or mutant PBP3	0.03 µg/mL
CC1(C)[C@H](C(=O)O)N2C(=O)C[C@H]2S1(=O)=O	isogenic A. baylyi ADP1 panel encoding wildtype or mutant PBP3	8 µg/mL
C[C@@H](O)[C@H]1C(=O)N2C(C(=O)O)=C(S[C@@H]3CN[C@H](C(=O)N(C)C)C3)[C@H](C)[C@H]12	isogenic A. baylyi ADP1 panel encoding wildtype or mutant PBP3	0.06 µg/mL

Consider C[C@H]1[C@H](NC(=O)/C(=N\OC(C)(C)C(=O)O)c2csc(N)n2)C(=O)N1S(=O)(=O)O . Its measured MIC is 64 µg/mL

* * *

Test system: A. baumannii PBP3 N377Y
assay_summary: Acylation rate constant (kinact/Ki), fluorescence anisotropy competition with BOCILLIN
endpoint_label: % WT

// below: answered molecules
molecule	endpoint_label	reported_value
C[C@@H](O)[C@H]1C(=O)N2C(C(=O)O)=C(SCCN=CN)C[C@H]12 [imipenem]	% WT	62.2%
C[C@H]1[C@H](NC(=O)/C(=N\OC(C)(C)C(=O)O)c2csc(N)n2)C(=O)N1S(=O)(=O)O [aztreonam]	% WT	72.9%
C[C@@H](O)[C@H]1C(=O)N2C(C(=O)O)=C(S[C@@H]3CN[C@H](C(=O)N(C)C)C3)[C@H](C)[C@H]12 [meropenem]	% WT	74%

Continue with the next molecule.
For reference, reported % WT for CC1(C)[C@H](C(=O)O)N2C(=O)C[C@H]2S1(=O)=O [sulbactam] stands at 60%–73%

* * *

Item-by-item account of MIC
Tested on: A. pittii clinical isolates
assay_summary: microbe, parasite or virus in culture
Format: cell-based
run_parameters: Acinetobacter pittii, isolate ARC7087 (IHMA 2212062), Colombia, BSI, 2020, read-out: MIC
Protocol: The following report describes the genomic analysis of these isolates for likely resistance mechanisms. Biochemical analysis of purified PBP3 and phenotypic analyses of both clinical and isogenic strains were also conducted to determine the relative impact of key resistance determinants to SUL-DUR antibacterial activity. […]
Give the quantity in µg/mL, number only.

These recorded examples may help you get a feel for the data.
molecule	endpoint_label	reported_value
CN(C)c1cc(NC(=O)CNC(C)(C)C)c(O)c2c1C[C@H]1C[C@H]3[C@H](N(C)C)C(O)=C(C(N)=O)C(=O)[C@@]3(O)C(O)=C1C2=O	MIC	0.25
C[C@@H](O)[C@H]1C(=O)N2C(C(=O)O)=C(SCCN=CN)C[C@H]12	MIC	64

// recorded MIC for CC1(C)[C@H](C(=O)O)N2C(=O)C[C@H]2S1(=O)=O : 64

* * *

Test system: A. baumannii clinical isolates
assay_summary: microbe, parasite or virus in culture
Assay type: cell-based
run_parameters: Acinetobacter baumannii, isolate ARC6953 (IHMA 1909827), Turkey, IAI, 2018, read-out: MIC
Method: The following report describes the genomic analysis of these isolates for likely resistance mechanisms. Biochemical analysis of purified PBP3 and phenotypic analyses of both clinical and isogenic strains were also conducted to determine the relative impact of key resistance determinants to SUL-DUR antibacterial activity. […]
endpoint_label: MIC (µg/mL)
The reply should be a number in µg/mL, with the unit left off.

A selection of reference data follows.
compound	measure_unit	reported_value
C[C@@H](O)[C@H]1C(=O)N2C(C(=O)O)=C(SCCN=CN)C[C@H]12 [imipenem]	µg/mL	64
CC1(C)[C@H](C(=O)O)N2C(=O)C[C@H]2S1(=O)=O [sulbactam]	µg/mL	64

Proceed to the following item.
Short answer for CN(C)c1cc(NC(=O)CNC(C)(C)C)c(O)c2c1C[C@H]1C[C@H]3[C@H](N(C)C)C(O)=C(C(N)=O)C(=O)[C@@]3(O)C(O)=C1C2=O [TIG, tigecycline] : MIC was 0.5
